From: patent US20250121082A1

Assay Target: T1, Human CD228 protein (human, UniProt P08582 20-708, limits assumed)
T1 construct: Recombinant protein made in CHO cells, purified over a Ni column; The printed entry begins with the leader (MRGPSG...) and ends with ten His; also called hCD228; CD228-His protein
T1 sequence: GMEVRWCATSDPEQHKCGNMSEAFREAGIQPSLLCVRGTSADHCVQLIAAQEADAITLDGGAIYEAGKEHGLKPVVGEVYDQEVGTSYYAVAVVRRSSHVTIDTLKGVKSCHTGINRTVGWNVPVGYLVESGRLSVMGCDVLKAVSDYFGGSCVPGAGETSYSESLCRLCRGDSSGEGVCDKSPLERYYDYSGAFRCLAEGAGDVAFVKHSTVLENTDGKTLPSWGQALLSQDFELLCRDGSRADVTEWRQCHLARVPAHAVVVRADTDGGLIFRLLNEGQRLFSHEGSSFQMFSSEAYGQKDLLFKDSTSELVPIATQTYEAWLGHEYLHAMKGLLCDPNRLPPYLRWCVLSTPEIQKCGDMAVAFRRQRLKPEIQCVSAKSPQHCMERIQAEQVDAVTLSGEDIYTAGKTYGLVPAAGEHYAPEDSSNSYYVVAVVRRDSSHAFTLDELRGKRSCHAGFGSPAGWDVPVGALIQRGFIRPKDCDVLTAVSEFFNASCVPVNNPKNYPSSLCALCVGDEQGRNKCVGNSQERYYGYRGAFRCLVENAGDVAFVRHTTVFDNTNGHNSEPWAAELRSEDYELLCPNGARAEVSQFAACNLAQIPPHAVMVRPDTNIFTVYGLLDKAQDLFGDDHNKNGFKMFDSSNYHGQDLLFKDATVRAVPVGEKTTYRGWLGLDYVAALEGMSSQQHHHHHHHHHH
Assay Overview: Octet competition on His-chip CD228; competitor: CA185
Method: CD228 proteins were immobilized on His chips at 10 μg/mL with a threshold of 0.5 nm. The first CD228 antibody (30 μg/mL) was immobilized, and the competitive binding of the second CD228 antibody (30 μg/mL) was analyzed. The Octet 8K system was used to analyze the response of antibody 2 and to determine whether antibody 1 and antibody 2 were in competition.

{"columns": ["Binder", "Octet response value"],
 "data": [
  ["CA67 (antibody, human IgG1, kappa, V domains shown, Intact IgG1) VH: EVQLVESGGGVVQPGRSLRLSCAASGFTFSSYAMHWVRQAPGKGLEWVAVISYDGSNKYYADSVKGRFTISRDNSKNTLYLQMNSLRAEDTAVYYCARDVYHYGSRSPYYYGMDVWGQGTTVTVSS VL: DIQMTQSPSSLSASVGDRVTITCRASQAISNYLAWYQQKPGKVPKLLIYAASTLHPGVPSRFSGSGSGTDFTLTISSLQPEDVATYYCQKYNSAPFTFGPGTKVDIKR", -0.0132]
]}
